Reported pA2 values follow for various molecules
Experimental System: Adrenergic receptor alpha-1 (Rattus norvegicus, UniProt P15823+P23944+P43140)
Sequence (P15823 whole entry): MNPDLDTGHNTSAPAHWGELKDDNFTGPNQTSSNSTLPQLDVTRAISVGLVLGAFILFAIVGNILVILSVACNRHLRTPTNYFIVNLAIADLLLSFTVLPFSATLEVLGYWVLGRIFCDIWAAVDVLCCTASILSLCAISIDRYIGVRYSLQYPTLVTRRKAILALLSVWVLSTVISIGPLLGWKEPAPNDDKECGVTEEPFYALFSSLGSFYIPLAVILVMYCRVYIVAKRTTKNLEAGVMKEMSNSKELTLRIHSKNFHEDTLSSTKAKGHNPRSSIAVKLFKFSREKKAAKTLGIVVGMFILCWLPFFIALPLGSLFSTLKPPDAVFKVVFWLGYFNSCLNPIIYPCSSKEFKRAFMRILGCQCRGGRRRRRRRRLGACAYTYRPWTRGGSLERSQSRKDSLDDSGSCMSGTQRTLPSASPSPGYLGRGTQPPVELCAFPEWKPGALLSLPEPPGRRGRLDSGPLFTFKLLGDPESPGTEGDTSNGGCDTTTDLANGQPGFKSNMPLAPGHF
Sequence (P23944 whole entry): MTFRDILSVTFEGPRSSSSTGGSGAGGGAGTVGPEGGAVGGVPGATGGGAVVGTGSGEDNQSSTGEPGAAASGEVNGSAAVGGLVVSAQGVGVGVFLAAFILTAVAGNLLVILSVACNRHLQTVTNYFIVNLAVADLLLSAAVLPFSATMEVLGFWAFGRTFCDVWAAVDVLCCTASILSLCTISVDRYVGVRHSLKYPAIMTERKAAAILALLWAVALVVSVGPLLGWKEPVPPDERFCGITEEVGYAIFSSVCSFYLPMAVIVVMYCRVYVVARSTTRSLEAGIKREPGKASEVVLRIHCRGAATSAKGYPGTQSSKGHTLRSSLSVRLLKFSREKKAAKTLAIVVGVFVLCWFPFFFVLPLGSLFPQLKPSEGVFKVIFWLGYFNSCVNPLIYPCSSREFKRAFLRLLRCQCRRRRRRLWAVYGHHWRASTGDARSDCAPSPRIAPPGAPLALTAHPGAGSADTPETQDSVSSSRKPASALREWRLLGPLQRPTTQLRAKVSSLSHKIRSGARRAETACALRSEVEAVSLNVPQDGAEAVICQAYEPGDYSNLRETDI
Sequence (P43140 whole entry): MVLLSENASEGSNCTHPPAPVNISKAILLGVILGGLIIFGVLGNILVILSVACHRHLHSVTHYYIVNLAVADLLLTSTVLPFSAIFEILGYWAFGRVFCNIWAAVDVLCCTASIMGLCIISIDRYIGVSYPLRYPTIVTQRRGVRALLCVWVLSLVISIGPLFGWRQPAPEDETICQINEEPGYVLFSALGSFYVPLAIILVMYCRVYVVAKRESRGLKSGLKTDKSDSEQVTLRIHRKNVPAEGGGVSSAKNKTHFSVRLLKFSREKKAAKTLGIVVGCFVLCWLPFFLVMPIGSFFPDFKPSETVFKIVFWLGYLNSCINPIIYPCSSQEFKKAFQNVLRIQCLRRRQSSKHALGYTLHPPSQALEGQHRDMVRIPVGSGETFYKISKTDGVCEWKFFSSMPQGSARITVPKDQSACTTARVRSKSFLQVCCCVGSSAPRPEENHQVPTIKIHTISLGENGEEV
Protocol Summary: Presynaptic antagonistic activity against alpha-1 adrenergic receptor from rat, isolated, field-stimulated vas deferens, using methoxamine as the agonist
Type: functional
Number only, please.

Field: example entries. Status: answers known.
* c1ccc(N2CCNCC2)nc1 | 5.7
* Clc1cccc(N2CCNCC2)n1 | 6
* Brc1cccnc1N1CCNCC1 | 5.8
* CN1CCN(c2ncccc2F)CC1 | 6.2

Prompt line: # input molecule: CN1CCN(c2ncccc2Br)CC1 ; wanted: its pA2
Response line: 6.5

Prompt line: # input molecule: Fc1cccnc1N1CCNCC1 ; wanted: its pA2
Response line: 5.18
